- systemUnderTest: HLA-B*27:05
- protocol: IEDB peptide-MHC binding, purified MHC/competitive/fluorescence; filed as Kd, often an IC50 or EC50 that approximates it; bounds were set here for any values at or beyond the usual limits of such assays
- measurementConditions: source organism: Yersinia pestis Antiqua
measuredParameter: pKd
Answers are plain numbers, as −log10 of the molar value.

Briefly, pKd measured for LRQKRKAGV : 7.09

###

- systemUnderTest: HLA-A*01:01
- protocol: IEDB peptide-MHC binding, purified MHC/competitive/radioactivity; filed as Kd, often an IC50 or EC50 that approximates it; bounds were set here for any values at or beyond the usual limits of such assays
- measurementConditions: source organism: Vaccinia virus Copenhagen
measuredParameter: pKd
Give bare numbers, as −log10 of the molar value.

Briefly, pKd measured for FGDSEEPVTY : 6.08

###

- systemUnderTest: HLA-B*44:02
- protocol: IEDB peptide-MHC binding, purified MHC/competitive/fluorescence; filed as Kd, often an IC50 or EC50 that approximates it; bounds were set here for any values at or beyond the usual limits of such assays
- measurementConditions: source organism: Brucella canis ATCC 23365
measuredParameter: Kd

Briefly, Kd measured for ETVWPFFYA : ≥ 5 µM

###

- systemUnderTest: HLA-B*08:01
- protocol: IEDB peptide-MHC binding, purified MHC/competitive/fluorescence; filed as Kd, often an IC50 or EC50 that approximates it; bounds were set here for any values at or beyond the usual limits of such assays
- measurementConditions: source organism: Giardia lamblia ATCC 50803
measuredParameter: pKd
Give bare numbers, as −log10 of the molar value.

Briefly, pKd measured for QLKQRDALF : 6.87

###

- systemUnderTest: HLA-A*31:01
- protocol: IEDB peptide-MHC binding, purified MHC/competitive/fluorescence; filed as Kd, often an IC50 or EC50 that approximates it; bounds were set here for any values at or beyond the usual limits of such assays
- measurementConditions: source organism: Giardia lamblia ATCC 50803
measuredParameter: Kd (nM)
Answers are plain numbers, in nM.

Briefly, Kd measured for TMNSRYYLV : 72.5

###

- systemUnderTest: HLA-B*54:01
- protocol: IEDB peptide-MHC binding, purified MHC/competitive/radioactivity; filed as Kd, often an IC50 or EC50 that approximates it; bounds were set here for any values at or beyond the usual limits of such assays
- measurementConditions: source organism: Hepacivirus hominis
pKd: −log10 of the molar value.
measuredParameter: pKd

Briefly, pKd measured for RNWAHSSL : ≤ 4.06

###

- systemUnderTest: HLA-B*07:02
- protocol: IEDB peptide-MHC binding, purified MHC/competitive/radioactivity; filed as Kd, often an IC50 or EC50 that approximates it; bounds were set here for any values at or beyond the usual limits of such assays
- measurementConditions: source organism: Hepacivirus hominis
pKd: −log10 of the molar value.
measuredParameter: pKd

Entry RNWAHSSL , HLA-B*07:02 data, pKd value: ≤ 4.24

###

- systemUnderTest: HLA-A*30:02
- protocol: IEDB peptide-MHC binding, purified MHC/competitive/radioactivity; filed as Kd, often an IC50 or EC50 that approximates it; bounds were set here for any values at or beyond the usual limits of such assays
- measurementConditions: source organism: Mammarenavirus lassaense
measuredParameter: pKd
One number for each entry, as −log10 of the molar value.

macromoleculeSequence	systemUnderTest	result
CFISVNDRLV	HLA-A*30:02	6.24

Read the next record carefully.
Briefly, pKd measured for KTGECSKCY : 6.08

###

- systemUnderTest: HLA-C*05:01
- protocol: IEDB peptide-MHC binding, purified MHC/direct/fluorescence; filed as Kd, often an IC50 or EC50 that approximates it; bounds were set here for any values at or beyond the usual limits of such assays
- measurementConditions: source organism: Mus musculus
pKd: −log10 of the molar value.
measuredParameter: pKd

Briefly, pKd measured for TFDVAPSRL : ≤ 4.70

###

- systemUnderTest: HLA-B*39:01
- protocol: IEDB peptide-MHC binding, purified MHC/competitive/fluorescence; filed as Kd, often an IC50 or EC50 that approximates it; bounds were set here for any values at or beyond the usual limits of such assays
- measurementConditions: source organism: Brucella canis ATCC 23365
measuredParameter: Kd

Entry ETVWPFFYA , HLA-B*39:01 data, Kd value: ≥ 5 µM

###

For each record, write down the corresponding pKd.
- systemUnderTest: HLA-A*03:01
- protocol: IEDB peptide-MHC binding, purified MHC/direct/fluorescence; filed as Kd, often an IC50 or EC50 that approximates it; bounds were set here for any values at or beyond the usual limits of such assays
- measurementConditions: source organism: Mycobacterium tuberculosis
pKd: −log10 of the molar value.

macromoleculeSequence	pKd
SQAFNTPAL	≤ 4.70
SPREECGVF	≤ 4.70

Read the next record carefully.
Entry GTAPPPLTR , HLA-A*03:01 data, pKd value: 6.49

###

- systemUnderTest: HLA-B*48:01
- protocol: IEDB peptide-MHC binding, purified MHC/direct/fluorescence; filed as Kd, often an IC50 or EC50 that approximates it; bounds were set here for any values at or beyond the usual limits of such assays
- measurementConditions: source organism: Influenza A virus (A/Hong Kong/514/97(H5N1))
measuredParameter: Kd

Briefly, Kd measured for VSDGGPNLY : ≥ 20 µM

###

- systemUnderTest: HLA-B*58:01
- protocol: IEDB peptide-MHC binding, purified MHC/direct/fluorescence; filed as Kd, often an IC50 or EC50 that approximates it; bounds were set here for any values at or beyond the usual limits of such assays
- measurementConditions: source organism: Escherichia coli O157:H7
measuredParameter: Kd

macromoleculeSequence	Kd
RVNKGTGVK	≥ 20 µM
LDKGKLWHL	≥ 20 µM
KTTIKFHPW	0.0475 µM

Read the next record carefully.
Briefly, Kd measured for LQLTAVFAY : ≥ 20 µM

###

- systemUnderTest: HLA-A*03:01
- protocol: IEDB peptide-MHC binding, purified MHC/competitive/radioactivity; filed as Kd, often an IC50 or EC50 that approximates it; bounds were set here for any values at or beyond the usual limits of such assays
- measurementConditions: source organism: Lassa virus Josiah
measuredParameter: pKd
Answers are plain numbers, as −log10 of the molar value.

Briefly, pKd measured for ICKMPLPTK : 6.05

###

- systemUnderTest: HLA-A*33:01
- protocol: IEDB peptide-MHC binding, purified MHC/competitive/radioactivity; filed as Kd, often an IC50 or EC50 that approximates it; bounds were set here for any values at or beyond the usual limits of such assays
- measurementConditions: source organism: Mammarenavirus juninense
measuredParameter: Kd (nM)
One number for each entry, in nM.

Entry NYTKFWYVNH , HLA-A*33:01 data, Kd value: 54.5

###

- systemUnderTest: HLA-B*45:06
- protocol: IEDB peptide-MHC binding, purified MHC/competitive/fluorescence; filed as Kd, often an IC50 or EC50 that approximates it; bounds were set here for any values at or beyond the usual limits of such assays
- measurementConditions: source organism: West Nile virus
pKd: −log10 of the molar value.
measuredParameter: pKd

Briefly, pKd measured for REWFMDLNL : ≤ 5.30

###

- systemUnderTest: HLA-B*58:01
- protocol: IEDB peptide-MHC binding, purified MHC/competitive/radioactivity; filed as Kd, often an IC50 or EC50 that approximates it; bounds were set here for any values at or beyond the usual limits of such assays
- measurementConditions: source organism: Dengue virus 4 Philippines/H241/1956
measuredParameter: Kd (nM)
One number for each entry, in nM.

Below, each entry is followed by its recorded Kd result.
macromoleculeSequence	readoutUnits	Kd
LSIPPTAGI	nM	24.1
VSSVNTTSKM	nM	1450

For every record below, what is its Kd?
1. MTTTANWLW
2. KAIKILTGF
3. ISSTPFAEYT

A.
1: 1.05; 2: 22.4; 3: 2050

###

- systemUnderTest: HLA-A*02:02
- protocol: IEDB peptide-MHC binding, purified MHC/competitive/radioactivity; filed as Kd, often an IC50 or EC50 that approximates it; bounds were set here for any values at or beyond the usual limits of such assays
- measurementConditions: source organism: Lymphocytic choriomeningitis virus (strain Armstrong)
measuredParameter: Kd (µM)
Numbers only, in µM.

Entry HNASDFYGL , HLA-A*02:02 data, Kd value: 6.51

###

- systemUnderTest: HLA-A*26:01
- protocol: IEDB peptide-MHC binding, purified MHC/direct/fluorescence; filed as Kd, often an IC50 or EC50 that approximates it; bounds were set here for any values at or beyond the usual limits of such assays
- measurementConditions: source organism: Burkholderia mallei ATCC 23344
measuredParameter: Kd

Briefly, Kd measured for AVAVARVAA : ≥ 20 µM

###

- systemUnderTest: HLA-B*15:17
- protocol: IEDB peptide-MHC binding, purified MHC/competitive/fluorescence; filed as Kd, often an IC50 or EC50 that approximates it; bounds were set here for any values at or beyond the usual limits of such assays
- measurementConditions: source organism: Human immunodeficiency virus 1
pKd: −log10 of the molar value.
measuredParameter: pKd

Entry LYNTIAVLY , HLA-B*15:17 data, pKd value: ≤ 4.70
